experiment description: A CellTox Green Cytotoxicity Assay to monitor cytotoxicity in HepG2 cells - 32 hour (AID 1224883); also: nearly all actives have a fitted effect of over 50% in size
run parameters: CellTox Green fluorescence; series mostly up to 76.8 µM
Records with an inconclusive call do not appear. Active and inactive are the calls of the source. Calls follow the shape of the dose curve; as a rule, active = well fitted activation curve with a large enough effect in the repeat runs; inconclusive = weak or mixed curves; inactive = flat fitted curve, though single readings scatter.
reported metric: cytotoxicity increase

Recorded results for 6 compounds are shown here.
Request: Given the entry COC(=O)CCSCCC(=O)OC , report its measured cytotoxicity increase.
Result: inactive

Request: Given the entry CCO/C([O-])=N/c1c[n+](N2CCOCC2)no1 , report its measured cytotoxicity increase.
Result: inactive

Request: Given the entry CCCCOCCOCCOCCCC , report its measured cytotoxicity increase.
Result: inactive

Request: Given the entry CC(=O)CC(C)(C)C1CCCCC1 , report its measured cytotoxicity increase.
Result: inactive

Request: Given the entry COc1c(N2C[C@@H]3CCCN[C@@H]3C2)c(F)cc2c(=O)c(C(=O)O)cn(C3CC3)c12 , report its measured cytotoxicity increase.
Result: inactive

Request: Given the entry Cc1cc2c(cc1S(N)(=O)=O)S(=O)(=O)CCC2 , report its measured cytotoxicity increase.
Result: inactive

New cases:
Request: Given the entry C=C(C)CS(=O)(=O)O , report its measured cytotoxicity increase.
Result: inactive

Request: Given the entry CCCCCOC(=O)CCCCC , report its measured cytotoxicity increase.
Result: inactive

Request: Given the entry NC(=O)c1ccc(N)cc1 , report its measured cytotoxicity increase.
Result: inactive

Request: Given the entry CC(C)=CCCC(C)CC(=O)O (configuration not stated) , report its measured cytotoxicity increase.
Result: inactive

Request: Given the entry O=C(O)Cc1ccc(CCNS(=O)(=O)c2ccc(Cl)cc2)cc1 , report its measured cytotoxicity increase.
Result: inactive

Request: Given the entry O=C(O)CCCc1ccccc1 , report its measured cytotoxicity increase.
Result: inactive

Numbers sourced from PubChem BioAssay (Tox21).
